Reference source for all entries: ChEMBL document CHEMBL1149774

Test system: CCRF-CEM
Test: Growth inhibition of human CCRF-CEM cells after 48 hrs by SRB staining method
Assay type: functional
Settings: read-out: pTGI (converted)
measurement_kind: TGI (µM)
The figure you give is taken to be in µM; do not add the unit.

For the record COc1cc(Nc2nc3cc(N)cc(N)c3nc2-c2ccccc2)cc(OC)c1 , what value of TGI is listed for CCRF-CEM? 0.166

---
Request body: readout TGI, system CCRF-CEM, query COc1cc(Nc2nc3cc(N)cc(N)c3nc2-c2ccccc2)cc(OC)c1OC . Return the value. 41.7

* * *

Test system: OVCAR-5
Test: Growth inhibition of human OVCAR5 cells after 48 hrs by SRB staining method
Format: functional
Conditions: OVCAR-5, 48 h
# LC50 annotations

Reference set (5 entries):
Record request: LC50 value, item COc1ccc(Nc2nc3cc(N)cc(N)c3nc2-c2ccccc2)cc1OC > 100 µM

Likewise for COc1ccc(Nc2nc3cc(N)cc(N)c3nc2-c2ccccc2)cc1 ? > 100 µM

Now the same for COc1cc(Nc2nc3cc(N)cc(N)c3nc2-c2ccccc2)cc(OC)c1OC > 100 µM

Okay, and Nc1cc(N)c2nc(-c3ccccc3)c(Nc3ccc(Cl)c(Cl)c3)nc2c1 ? 85.1 µM

Follow-up entry: CCOC(=O)CCC(NC(=O)c1ccc(Nc2nc3cc(N)cc(N)c3nc2-c2ccccc2)cc1)C(=O)OCC (stereo unspecified) > 100 µM

New cases:
Item under review: COc1cc(Nc2nc3cc(N)cc(N)c3nc2-c2ccccc2)cc(OC)c1 . Reported LC50? > 100 µM

* * *

Target: Dihydrofolate reductase (Homo sapiens) (UniProt P00374)
Sequence (P00374 whole entry): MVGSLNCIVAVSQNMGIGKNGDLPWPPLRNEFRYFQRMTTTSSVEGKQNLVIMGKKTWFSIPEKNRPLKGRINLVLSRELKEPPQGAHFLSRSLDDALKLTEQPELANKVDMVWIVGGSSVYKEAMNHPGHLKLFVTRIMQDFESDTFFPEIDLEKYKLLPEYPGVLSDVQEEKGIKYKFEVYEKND
Assay: Inhibition of human dihydrofolate reductase at 10 uM
Active and inactive are the calls of the source. The calls are words filed in the database; no cut-off is given here.
measurement_kind: Activity

Activity lookup needed for Nc1cc(N)c2nc(-c3ccccc3)c(Nc3ccc(F)cc3)nc2c1 , thanks. inactive

Another: COc1ccc(Nc2nc3cc(N)cc(N)c3nc2-c2ccccc2)cc1OC inactive

Would you kindly repeat that for CCOC(=O)CCC(NC(=O)c1ccc(Nc2nc3cc(N)cc(N)c3nc2-c2ccccc2)cc1)C(=O)OCC (centres undefined) ? inactive

Likewise for Nc1cc(N)c2nc(-c3ccccc3)c(Nc3ccc(Cl)c(Cl)c3)nc2c1 ? inactive

* * *

Here the recorded LC50 (50% lethal concentration) is given for each entry.
Test system: U-251
Assay: Growth inhibition of human U251 cells after 48 hrs by SRB staining method
Assay type: functional
Conditions: U-251, 48 h

Guide cases for LC50 (50% lethal concentration), answers given:
Reported LC50 (50% lethal concentration), molecule COc1ccc(Nc2nc3cc(N)cc(N)c3nc2-c2ccccc2)cc1OC : ____ > 100 µM

Here is the next molecule: CCOC(=O)CCC(NC(=O)c1ccc(Nc2nc3cc(N)cc(N)c3nc2-c2ccccc2)cc1)C(=O)OCC (stereo unspecified) 95.5 µM

Lookup COc1cc(Nc2nc3cc(N)cc(N)c3nc2-c2ccccc2)cc(OC)c1OC > 100 µM

Field entry: COc1cc(Nc2nc3cc(N)cc(N)c3nc2-c2ccccc2)cc(OC)c1 > 100 µM

Do the same for COc1ccc(Nc2nc3cc(N)cc(N)c3nc2-c2ccccc2)cc1 please 55 µM

Next:
Dear colleague, I am looking for the recorded LC50 (50% lethal concentration) of the following molecule: Nc1cc(N)c2nc(-c3ccccc3)c(Nc3ccc(Cl)c(Cl)c3)nc2c1 > 100 µM

* * *

Readings of LC50 for the listed molecules
System: OVCAR-3
Assay: Growth inhibition of human OVCAR-3 cells after 48 hrs by SRB staining method
Format: functional
Settings: OVCAR-3, 48 h
# output: bare number, implied unit µM

Examples with their reported LC50 follow.
Item COc1ccc(Nc2nc3cc(N)cc(N)c3nc2-c2ccccc2)cc1 has what recorded LC50? 79.4

Further, for COc1cc(Nc2nc3cc(N)cc(N)c3nc2-c2ccccc2)cc(OC)c1 ? 100

Now the same for COc1cc(Nc2nc3cc(N)cc(N)c3nc2-c2ccccc2)cc(OC)c1OC 97.7

Lab note: next molecule to report on.
Please look up its LC50: Nc1cc(N)c2nc(-c3ccccc3)c(Nc3ccc(Cl)c(Cl)c3)nc2c1 37.2

* * *

Test system: NCI-H23
Experiment: Growth inhibition of human NCI-H23 cells after 48 hrs by SRB staining method
Format: functional
Conditions: NCI-H23, 48 h, read-out: pTGI (converted)
Overview of recorded TGI for various compounds

// known answers, use as guide
Reported TGI for Nc1cc(N)c2nc(-c3ccccc3)c(Nc3ccc(F)cc3)nc2c1 : what is it? 49 µM

Moving on to the next compound: CCOC(=O)CCC(NC(=O)c1ccc(Nc2nc3cc(N)cc(N)c3nc2-c2ccccc2)cc1)C(=O)OCC (configuration not stated) 55 µM

What do you have for Nc1cc(N)c2nc(-c3ccccc3)c(Nc3ccc(Cl)c(Cl)c3)nc2c1 ? 55 µM

Another compound: COc1cc(Nc2nc3cc(N)cc(N)c3nc2-c2ccccc2)cc(OC)c1 > 100 µM

Now the compound COc1ccc(Nc2nc3cc(N)cc(N)c3nc2-c2ccccc2)cc1OC 79.4 µM

Queued: COc1cc(Nc2nc3cc(N)cc(N)c3nc2-c2ccccc2)cc(OC)c1OC 75.9 µM

// next entry
Request the reported TGI associated with COc1ccc(Nc2nc3cc(N)cc(N)c3nc2-c2ccccc2)cc1 25.1 µM

* * *

Tested on: LOX IMVI
Assay: Growth inhibition of human LOX IMVI cells after 48 hrs by SRB staining method
Type: functional
measurement_kind: GI50 (µM)
Write the answer as a number in µM, unit excluded.

GET /values?readout=GI50&item= Nc1cc(N)c2nc(-c3ccccc3)c(Nc3ccc(Cl)c(Cl)c3)nc2c1 4.37

Further, for COc1cc(Nc2nc3cc(N)cc(N)c3nc2-c2ccccc2)cc(OC)c1 ? 15.1

Also check COc1cc(Nc2nc3cc(N)cc(N)c3nc2-c2ccccc2)cc(OC)c1OC 18.6

Now this one: CCOC(=O)CCC(NC(=O)c1ccc(Nc2nc3cc(N)cc(N)c3nc2-c2ccccc2)cc1)C(=O)OCC (configuration not stated) 8.51

For COc1ccc(Nc2nc3cc(N)cc(N)c3nc2-c2ccccc2)cc1 then? 16.2

Ok, now COc1ccc(Nc2nc3cc(N)cc(N)c3nc2-c2ccccc2)cc1OC 25.7

Below: the item to evaluate.
For Nc1cc(N)c2nc(-c3ccccc3)c(Nc3ccc(F)cc3)nc2c1 , what is its reported GI50? 4.79

* * *

System: NCI-H522
Experiment: Growth inhibition of human NCI-H522 cells after 48 hrs by SRB staining method
Format: functional
Conditions: NCI-H522, 48 h
Reported GI50 values for a set of compounds
Hi! Could you send only the number? It should be in µM, unit omitted.

Need GI50, item COc1cc(Nc2nc3cc(N)cc(N)c3nc2-c2ccccc2)cc(OC)c1 9.55

Again, but for COc1ccc(Nc2nc3cc(N)cc(N)c3nc2-c2ccccc2)cc1OC 28.8

What about this compound? CCOC(=O)CCC(NC(=O)c1ccc(Nc2nc3cc(N)cc(N)c3nc2-c2ccccc2)cc1)C(=O)OCC (configuration not stated) 27.5

# repeat for COc1cc(Nc2nc3cc(N)cc(N)c3nc2-c2ccccc2)cc(OC)c1OC 18.2

New cases:
GI50 for Nc1cc(N)c2nc(-c3ccccc3)c(Nc3ccc(Cl)c(Cl)c3)nc2c1 ? 5.25

Repeat for the following compound: COc1ccc(Nc2nc3cc(N)cc(N)c3nc2-c2ccccc2)cc1 14.8

* * *

Overview of reported CC50 across a group of compounds:
System: CAKI-1
Experiment: Growth inhibition of human CAKI1 cells after 48 hrs by SRB staining method
Format: functional
Conditions: CAKI-1, 48 h, read-out: pLC50 (the source's name) (converted)

Entry Nc1cc(N)c2nc(-c3ccccc3)c(Nc3ccc(F)cc3)nc2c1 , system CAKI-1: what CC50 was measured? 85.1 µM

# iterate: COc1cc(Nc2nc3cc(N)cc(N)c3nc2-c2ccccc2)cc(OC)c1OC > 100 µM

And COc1ccc(Nc2nc3cc(N)cc(N)c3nc2-c2ccccc2)cc1OC ? > 100 µM

Next: COc1ccc(Nc2nc3cc(N)cc(N)c3nc2-c2ccccc2)cc1 > 100 µM

Another compound: COc1cc(Nc2nc3cc(N)cc(N)c3nc2-c2ccccc2)cc(OC)c1 > 100 µM

Similarly, Nc1cc(N)c2nc(-c3ccccc3)c(Nc3ccc(Cl)c(Cl)c3)nc2c1 ? 64.6 µM

***
# query: CC50 | item CCOC(=O)CCC(NC(=O)c1ccc(Nc2nc3cc(N)cc(N)c3nc2-c2ccccc2)cc1)C(=O)OCC (configuration not stated) | system: CAKI-1 > 100 µM
